# TEST_SYSTEM: full-length human RORγt (Homo sapiens (Human))
# TEST_PROTOCOL: RORγt (full-length human) reporter assay, Conditions B or C
# Format: cell-based
# RUN_PARAMETERS: read-out: RORγt (FL) Reporter Assay B or C, IC50
Known IC50 of a selection of molecules
The figure you give is taken to be in nM; do not add the unit.

# MOLECULE, RESULT_UNITS, IC50
rows = [
    ("C[C@H](NC(=O)c1nc(C(=O)N2CCC[C@@H]2C)c(-c2cnc(N[C@H](C3CC3)C(F)(F)F)cc2C(F)F)s1)C(C)(C)O", "nM", 30),
]

For reference, reported IC50 for CC[C@H](Nc1cc(C(F)F)c(-c2sc(C(=O)NC3CCCC3O)nc2C(=O)N2CCC[C@@H]2C)cn1)C(F)(F)F (stereo partly shown) stands at 35

For reference, reported IC50 for C[C@H](Nc1cc(C(F)F)c(-c2sc(C(=O)NC3CCC3O)nc2C(=O)N2C3CCC2CC3)cn1)C(F)(F)F (stereo partly shown) stands at 6.5

For reference, reported IC50 for C[C@H]1CCCN1C(=O)c1nc(C(=O)N[C@H]2C[C@H](O)C2)sc1-c1cnc(NC(C)(C)C)cc1C(F)F stands at 56

For reference, reported IC50 for C[C@H]1CCCN1C(=O)c1nc(C(=O)NCC(O)C(F)(F)F)sc1-c1cnc(NC(C)(C)C)cc1C(F)(F)F (stereo in doubt) stands at 42

For reference, reported IC50 for C[C@H](Nc1cc(C(F)F)c(-c2sc(C(=O)N[C@H](C)C(C)(C)O)nc2C(=O)N2C3CCC2CC3)cn1)C(F)(F)F stands at 96

For reference, reported IC50 for CC1(Nc2cc(C(F)F)c(-c3sc(C(=O)N[C@H]4C[C@H](O)C4)nc3C(=O)N3C4CCC3CC4)cn2)CCC1 stands at 16

For reference, reported IC50 for C[C@H]1CCCN1C(=O)c1nc(C(=O)NC[C@H](O)CO)sc1-c1cnc(NC(C)(C)C)cc1C(F)(F)F stands at 130

For reference, reported IC50 for C[C@H](Nc1cc(C(F)F)c(-c2sc(C(=O)N[C@H]3CCC[C@@H]3O)nc2C(=O)N2CCC[C@@H]2C)cn1)C(F)(F)F stands at 64

For reference, reported IC50 for O=C(N[C@H]1C[C@H](O)C1)c1nc(C(=O)N2C3CCC2CC3)c(-c2cnc(N[C@@H](C3CC3)C(F)(F)F)cc2C(F)F)s1 stands at 28

For reference, reported IC50 for C[C@H]1CCCN1C(=O)c1nc(C(=O)NC2(CO)CC2)sc1-c1cnc(NC(C)(C)C)cc1C(F)(F)F stands at 6.6

For reference, reported IC50 for CC[C@H](Nc1cc(C(F)F)c(-c2sc(C(=O)N[C@@H]3CC[C@H]3O)nc2C(=O)N2C3CCC2CC3)cn1)C(F)(F)F (relative stereo) stands at 110

For reference, reported IC50 for C[C@H]1CCCN1C(=O)c1nc(C(=O)NCC(C)(C)O)sc1-c1cnc(NC(C)(C)CC(F)(F)F)cc1C(F)F stands at 7.1

---

# TEST_SYSTEM: full-length human RORγt (Homo sapiens (Human), UniProt P51449)
# Sequence (P51449 other isoform, or with tags, fused parts or gaps): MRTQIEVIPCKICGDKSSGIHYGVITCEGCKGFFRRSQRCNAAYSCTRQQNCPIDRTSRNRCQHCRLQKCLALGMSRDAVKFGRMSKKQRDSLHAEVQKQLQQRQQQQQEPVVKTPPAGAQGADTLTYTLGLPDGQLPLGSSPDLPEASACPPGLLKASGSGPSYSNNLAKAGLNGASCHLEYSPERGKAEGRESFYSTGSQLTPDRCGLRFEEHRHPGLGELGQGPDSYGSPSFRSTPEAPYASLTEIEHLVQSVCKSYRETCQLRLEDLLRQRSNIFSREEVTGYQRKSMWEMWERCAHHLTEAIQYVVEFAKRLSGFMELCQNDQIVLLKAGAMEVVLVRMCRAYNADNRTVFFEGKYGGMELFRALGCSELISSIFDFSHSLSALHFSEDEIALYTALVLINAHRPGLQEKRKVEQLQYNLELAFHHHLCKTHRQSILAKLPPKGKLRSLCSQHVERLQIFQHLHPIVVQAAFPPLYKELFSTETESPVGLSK
# TEST_PROTOCOL: RORγt (full-length human) reporter assay, Conditions B or C
# Format: cell-based
# RUN_PARAMETERS: Conditions B or C; read-out: RORγt (FL) Reporter Assay B or C, IC50
Known IC50 of a selection of compounds
The figure you give is taken to be in nM; do not add the unit.

# COMPOUND, IC50 (nM)
measured = [
    ("CC[C@H](Nc1cc(C(F)F)c(-c2sc(C(=O)N[C@H]3C[C@H](O)C3)nc2C(=O)N2C3CCC2CC3)cn1)C(F)(F)F [Example 222]", 12),
]

For reference, reported IC50 for C[C@H]1CC(F)(F)CN1C(=O)c1nc(C(=O)NCC(C)(C)O)sc1-c1cnc(NCC2(C(F)(F)F)CC2)cc1C(F)(F)F [Example 126] stands at 69

For reference, reported IC50 for CC[C@H](Nc1cc(C(F)F)c(-c2sc(C(=O)N[C@H]3C[C@H](O)C3)nc2C(=O)N2CCC[C@@H]2C)cn1)C(F)(F)F [Example 233] stands at 22

For reference, reported IC50 for CC(C)(O)CNC(=O)c1nc(C(=O)N2CCC(F)CC2)c(-c2cnc(NC3CCCCC3(F)F)cc2C(F)(F)F)s1 (stereo not shown) [Example 26] stands at 37

For reference, reported IC50 for C[C@H]1CCCN1C(=O)c1nc(C(=O)NCC(C)(C)O)sc1-c1cnc(NC2(C(F)(F)F)CCC2)cc1C(F)(F)F [Example 104] stands at 25

For reference, reported IC50 for CC[C@@H](Nc1cc(C(F)F)c(-c2sc(C(=O)NCC(C)(C)O)nc2C(=O)N2C3CCC2CC3)cn1)C1CC1 (stereo in doubt) [Example 164] stands at 23

For reference, reported IC50 for CC[C@H](Nc1cc(C(F)F)c(-c2sc(C(=O)N[C@H](C)CO)nc2C(=O)N2CCC[C@@H]2C)cn1)C(F)(F)F [Example 234] stands at 42

For reference, reported IC50 for CC[C@H](Nc1cc(C(F)(F)F)c(-c2sc(C(=O)NCC(C)(C)O)nc2C(=O)N2CCC[C@@H]2C)cn1)C1CC1 (relative stereo) [Example 128] stands at 23

For reference, reported IC50 for C[C@H]1CCCCN1C(=O)c1nc(C(=O)NCC(C)(C)O)sc1-c1cnc(NCC(C)(C)C)cc1C(F)(F)F [Example 86] stands at 13

For reference, reported IC50 for CC[C@H](Nc1cc(C(F)F)c(-c2sc(C(=O)N[C@@H]3COC[C@H]3O)nc2C(=O)N2CCC[C@@H]2C)cn1)C(F)(F)F [Example 220] stands at 13

For reference, reported IC50 for C[C@H](Nc1cc(C(F)(F)F)c(-c2sc(C(=O)NCC(C)(C)O)nc2C(=O)N2CCC[C@@H]2C)cn1)C1CC1 [Example 40] stands at 13

For reference, reported IC50 for CC[C@H](Nc1cc(C(F)F)c(-c2sc(C(=O)N[C@H]3COC[C@H]3O)nc2C(=O)N2CCC[C@@H]2C)cn1)C(F)(F)F (single isomer, unassigned) [Example 165] stands at 40

For reference, reported IC50 for C[C@H]1CCCN1C(=O)c1nc(C(=O)NCC(C)(C)O)sc1-c1cnc(NCC(C)(C)C)cc1C(F)F [Example 113] stands at 63

---

# TEST_SYSTEM: human RORγt ligand binding domain (RORγt LBD) (Homo sapiens (Human), UniProt P51449)
# Sequence (P51449 other isoform, or with tags, fused parts or gaps): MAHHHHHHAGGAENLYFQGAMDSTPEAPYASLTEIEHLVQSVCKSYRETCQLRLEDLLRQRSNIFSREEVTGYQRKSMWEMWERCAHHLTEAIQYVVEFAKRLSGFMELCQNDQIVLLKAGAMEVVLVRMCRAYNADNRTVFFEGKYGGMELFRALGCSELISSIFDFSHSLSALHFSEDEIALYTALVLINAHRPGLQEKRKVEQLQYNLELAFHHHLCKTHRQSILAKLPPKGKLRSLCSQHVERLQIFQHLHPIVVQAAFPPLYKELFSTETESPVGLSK
# TEST_PROTOCOL: RORγt ThermoFluor® assay (thermal shift binding)
# RUN_PARAMETERS: read-out: ThermoFluor® Assay, Kd
# Experimental: […] Bar-coded assay plates are robotically loaded onto a thermostatically controlled PCR-type thermal block and then heated at a typical ramp-rate of 1° C./min for all experiments. Fluorescence was measured by continuous illumination with UV light (Hamamatsu LC6) supplied via fiber optic and filtered through a band-pass filter (380-400 nm; >6 OD cutoff). […] Images were collected at each temperature, and the sum of the pixel intensity in a given area of the assay plate was recorded versus temperature. […]
Output TRUE for records whose Kd is lower than 0.6 nM, FALSE for records at or above 0.6 nM.

Criterion: Kd strictly below 0.6 nM. Is it met by C[C@H]1CCCCN1C(=O)c1nc(C(=O)NCC(C)(C)O)sc1-c1cnc(NC2CCCC2)cc1C(F)(F)F ?
TRUE

Criterion: Kd strictly below 0.6 nM. Is it met by C[C@H]1CC(F)(F)CN1C(=O)c1nc(C(=O)NC2CCS(=O)(=O)CC2)sc1-c1cnc(NC2(C)CCC2)cc1C(F)F ?
TRUE

Criterion: Kd strictly below 0.6 nM. Is it met by CC(C)(C)CNc1cc(C(F)F)c(-c2sc(C(=O)NCC(C)(C)O)nc2C(=O)N2C3CCC2CC3)cn1 ?
FALSE

Criterion: Kd strictly below 0.6 nM. Is it met by CC[C@H](Nc1cc(C(F)F)c(-c2sc(C(=O)N[C@H](C)[C@@H](C)O)nc2C(=O)N2CCC[C@@H]2C)cn1)C(F)(F)F (relative stereo) ?
FALSE

Criterion: Kd strictly below 0.6 nM. Is it met by CC(C)(O)CCNC(=O)c1nc(C(=O)N2CCC(F)(F)CC2)c(-c2cnc(NC3CCCCC3)cc2C(F)(F)F)s1 ?
FALSE

---

# TEST_SYSTEM: full-length human RORγt (Homo sapiens (Human), UniProt P51449)
# TEST_PROTOCOL: RORγt (full-length human) reporter assay, Conditions B or C
# Assay type: cell-based
# RUN_PARAMETERS: Conditions B or C; marked ***: footnote not given
QUANTITY_MEASURED: RORγt (FL) Reporter Assay B or C, % inhibition (value marked ***)

# COMPOUND, ASSAY_RESULT
data = [
    ("CC[C@@H](Nc1cc(C(F)F)c(-c2sc(C(=O)N[C@H](C)CO)nc2C(=O)N2CCC[C@@H]2C)cn1)C(F)(F)F", "106*** %"),
    ("CC[C@H](Nc1cc(C(F)(F)F)c(-c2sc(C(=O)NCC(C)(C)O)nc2C(=O)N2C3CCC2CC3)cn1)C1CC1 (stereo in doubt)", "98*** %"),
    ("C[C@H]1CC(F)(F)CN1C(=O)c1nc(C(=O)NCC(C)(C)O)sc1-c1cnc(NC(C2CC2)C2CC2)cc1C(F)(F)F", "100*** %"),
]

For reference, reported RORγt (FL) Reporter Assay B or C, % inhibition (value marked ***) for C[C@H](Nc1cc(C(F)F)c(-c2sc(C(=O)N[C@@H]3COC[C@@H]3O)nc2C(=O)N2CCC[C@@H]2C)cn1)C(F)(F)F (single isomer, unassigned) stands at 93*** %

For reference, reported RORγt (FL) Reporter Assay B or C, % inhibition (value marked ***) for C[C@H](Nc1cc(C(F)F)c(-c2sc(C(=O)NCC(C)(C)O)nc2C(=O)N2CCC[C@@H]2C)cn1)C(F)(F)F stands at 76*** %

For reference, reported RORγt (FL) Reporter Assay B or C, % inhibition (value marked ***) for C[C@H]1CC(F)(F)CN1C(=O)c1nc(C(=O)NCC(C)(C)O)sc1-c1cnc(NCC(C)(C)C)cc1C(F)(F)F stands at 128*** %
